B1: Transitional endoplasmic reticulum ATPase, residues 26 to 106; numbered along this chain, P55072 (parent)
chain: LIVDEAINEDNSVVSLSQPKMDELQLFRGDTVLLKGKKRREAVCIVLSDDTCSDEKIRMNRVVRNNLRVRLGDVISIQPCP

- Variants of: B1
- test: abundance fitness (aPCA) (normalised: wild type 0, dead -1); higher = more abundant; growth selection in yeast, the domain comes from the species named
- experimental_setup: Homo sapiens
Rule: 1.0 for abundance fitness not less than -0.2, 0.0 for anything less.

Identify whether the reported abundance fitness of the following variant is -0.2 or greater: "V74P"
1.0

Identify whether the reported abundance fitness of the following variant is -0.2 or greater: "I45D"
1.0

Identify whether the reported abundance fitness of the following variant is -0.2 or greater: "I57R"
0.0

Identify whether the reported abundance fitness of the following variant is -0.2 or greater: "E9Y"
1.0

Identify whether the reported abundance fitness of the following variant is -0.2 or greater: "L33D"
0.0

Identify whether the reported abundance fitness of the following variant is -0.2 or greater: "A6W"
1.0

Identify whether the reported abundance fitness of the following variant is -0.2 or greater: "V69Q"
0.0

Identify whether the reported abundance fitness of the following variant is -0.2 or greater: "Q18C"
1.0

Identify whether the reported abundance fitness of the following variant is -0.2 or greater: "V14G"
0.0

Identify whether the reported abundance fitness of the following variant is -0.2 or greater: "K38E"
1.0

Identify whether the reported abundance fitness of the following variant is -0.2 or greater: "C80N"
1.0

Identify whether the reported abundance fitness of the following variant is -0.2 or greater: "V43M"
1.0

Identify whether the reported abundance fitness of the following variant is -0.2 or greater: "D4E"
1.0

Identify whether the reported abundance fitness of the following variant is -0.2 or greater: "S15R"
1.0

Identify whether the reported abundance fitness of the following variant is -0.2 or greater: "T31E"
1.0

Identify whether the reported abundance fitness of the following variant is -0.2 or greater: "E23M"
1.0

Identify whether the reported abundance fitness of the following variant is -0.2 or greater: "K20A"
1.0

Identify whether the reported abundance fitness of the following variant is -0.2 or greater: "K20W"
0.0

Identify whether the reported abundance fitness of the following variant is -0.2 or greater: "N11G"
1.0

Identify whether the reported abundance fitness of the following variant is -0.2 or greater: "V32S"
0.0

Identify whether the reported abundance fitness of the following variant is -0.2 or greater: "A6P"
1.0

Identify whether the reported abundance fitness of the following variant is -0.2 or greater: "I75V"
1.0

Identify whether the reported abundance fitness of the following variant is -0.2 or greater: "N8I"
1.0

Identify whether the reported abundance fitness of the following variant is -0.2 or greater: "M21T"
0.0

Identify whether the reported abundance fitness of the following variant is -0.2 or greater: "V14A"
0.0

Identify whether the reported abundance fitness of the following variant is -0.2 or greater: "R58E"
0.0

Identify whether the reported abundance fitness of the following variant is -0.2 or greater: "D54F"
1.0

Identify whether the reported abundance fitness of the following variant is -0.2 or greater: "C52W"
0.0

Identify whether the reported abundance fitness of the following variant is -0.2 or greater: "L67F"
0.0

Identify whether the reported abundance fitness of the following variant is -0.2 or greater: "K37W"
1.0

Identify whether the reported abundance fitness of the following variant is -0.2 or greater: "V63C"
1.0

Identify whether the reported abundance fitness of the following variant is -0.2 or greater: "L67N"
0.0

Identify whether the reported abundance fitness of the following variant is -0.2 or greater: "L71K"
1.0

Identify whether the reported abundance fitness of the following variant is -0.2 or greater: "N60W"
0.0

Identify whether the reported abundance fitness of the following variant is -0.2 or greater: "C44P"
0.0

Identify whether the reported abundance fitness of the following variant is -0.2 or greater: "F27L"
1.0

Identify whether the reported abundance fitness of the following variant is -0.2 or greater: "D50T"
1.0

Identify whether the reported abundance fitness of the following variant is -0.2 or greater: "E41N"
0.0

Identify whether the reported abundance fitness of the following variant is -0.2 or greater: "V63M"
1.0

Identify whether the reported abundance fitness of the following variant is -0.2 or greater: "I7A"
1.0

Identify whether the reported abundance fitness of the following variant is -0.2 or greater: "V3A"
0.0

Identify whether the reported abundance fitness of the following variant is -0.2 or greater: "R58T"
0.0

Identify whether the reported abundance fitness of the following variant is -0.2 or greater: "P79C"
1.0

Identify whether the reported abundance fitness of the following variant is -0.2 or greater: "R68Y"
1.0

Identify whether the reported abundance fitness of the following variant is -0.2 or greater: "L34I"
1.0
